Test system: PBMC cells obtained from mite allergic patients and non-allergics
Assay: Ex vivo stimulation of PBMC: cytokine production (IFN-gamma, IL-9, IL-10, IL-17, IL-31)
Type: cell-based, human
Details: non-allergic individuals; IL-31
experimental.endpoint: % non-allergic individuals with cytokine production in ex-vivo T cell assay IL-31 (%)
Record the value in %, omitting the unit from your answer.

Answered examples (5):
1) A020: house dust mite protein; SEQ ID NO: 15 (Der f), 16 (Der p); Blo t SEQ ID NO: 316 printed as A0019 (protein) MSKPIFYYHPFSGPCRTVSTVAKILNVDMEMKKLDLLTKEHLNPEFLKVNPFHKVPTFVDSDGFVVDESRVIAMYLVESRKPDSFLYPKNDLKKRIQIDRWLHYDINLSTTISAPMFCVFRGHQVQDYQVEQGKETLKTLDGVMQSFEGKFLTGADQFTLADIAMYFSLNTMEVYPKYFKFDDYPNLKSWYHRVAEALKQYDTEGTIPKAIETMKQFIQQRAAEAEKH	0
2) A018: house dust mite protein; SEQ ID NO: 5 (Der f), 6 (Der p), 314 (Blo t) (protein) MVKAVVVLKGDPNVSGTIFFEQQDNGPVKVTGSVQGLKPGLHGFHVHEFGDNTNGCTSAGAHYNPLNKTHGAPNDEERHVGDLGNIEANDKGVANVVIEDSLISLTGEKSIVGRSLVVHADPDDLGRGGHELSKTTGNAGGRLVCGVIGVTK	0
3) A024: house dust mite protein; SEQ ID NO: 11 (Der f), 12 (Der p), 318 (Blo t) (protein) MSISAHGGGLVNGIAGMENKFTVFTSGKPVSGLTVAFEGPTKPEINFNSTKDGSVDVGYIPKAGGQYKIHIKYEGKEIVGSPFKCNISGDESTHRKLTEKVKVGGPNISTGKVNQDNQLTIDCKEAGITGGISFAMEGPAKVEVSFRNNNDGTITVIYKPPTPGDYKLHLKFNDIHLPGSPYPIVVSA	0
4) A019: house dust mite protein; SEQ ID NO: 1 (Der f), 4 (Der p), 315 (Blo t) (protein) QVYCNGAAIVSAARSQIGVPYSWGGGGIHGKSRGIGEGANTVGFDCSGLAQYSVYQGTHKVLARVASGQYSDPKCHHVAYGSHQPGDLVFFGNPIHHVGIVSAHGRMINAPHTGTNVREENIWSDHIANVARCW	17
5) A023: house dust mite protein; SEQ ID NO: 23 (Der f), 24 (Der p) (protein) DPVQQRPTLRGVTVRVGPFVKENNGKFEGFIPDLVQAISEKVGFDYTLYLSPDGRYGNVISDGNVTGMIGEVYNKKADFAAADLTMTEARENYITFTEPFMINQLAALIRREDAEGLNTLEDLAKAQETFPKRKRIVLGTLRNGATNYFLSKSDDPLAKKIYEQIKADDQSVVKSISEGVERVDKQGGYAFIMESASAEHEIANNCKLTMLLDWRNLFPRKYAFALPKDSPYLEHFNNAIKQLNSEGKIAELRRKYWANNCAENKTKDDKN	0

Form field % non-allergic individuals with cytokine production in ex-vivo T cell assay IL-31, entry A001: house dust mite protein; SEQ ID NO: 13 (Der f), 14 (Der p); recombinant test protein (protein) KKSPDCDIERPIRECLKDGLLRYSSGQKINQFPDTIQDLNRACEELKKSETCARTFIDTCTESSYEKRSLDSLLDGIQRVMKRLCRSQTKKEKLLENVGCANSVVQDTKQCLKNYRMLVFAANKLDNKNKIMRILCCKSRKVAPCIGEAMKAKGTAVCSAKNIDYFKDVHQNIKQEMTAVVCSDFERDQCENVDVPNISESEYKDQNIFNPLRDLYKKVILG : 0

Given item A022: house dust mite protein; SEQ ID NO: 19 (Der f), 20 (Der p), 317 (Blo t) (protein) NWQMVWQDEFNGGHLDQNHWEFETGGGGWGNNELEFYTANRSQNVRVENGHLVIDVRVESYGGRDFTSGRIHSKQAWAYGKFEARARLPSGHHLWPAIWMFPRDSKYGPWAASGEIDIMEYRGDVHDKIEGTIHYGGQWPNNIYTGSGPHHFNVDFSKDFHNFAVEWDTKEIRWYMDGNKYFSVNIDRNMWSGKGNNPYNKNGQPFDQPFRWILNVAVGGNFFGPGPYVTPDQARHWQKHTMEIDYVRVYQWR , the value recorded as its % non-allergic individuals with cytokine production in ex-vivo T cell assay IL-31 is 0

The reported % non-allergic individuals with cytokine production in ex-vivo T cell assay IL-31 of the molecule A017: house dust mite protein; SEQ ID NO: 21 (Der f), 25 (Der p), 313 (Blo t) (protein) MSSSSGKKYDFSGKVALVTGSSSGIGAAIALQFAQYGAQVTITGRDAAALESVAKRIEAESGHQPLQIVGNLLDQSLPAKLIDGTISKYGRLDFLVNNAGFSTQHRDIHDEKLMEAFDQVYGLNVRAVVQLSQLAATHLEKSKGNIINISSNLSMMPVHIIYSSSKAALDMITKTMAMEFGKKGVRVNSINPGPVATQFMRSLGMPVTFLKENEEFVKELTLLKFVAQPVEIANLASFLASDDARNMTGSIVVNDTGSLLAPRVDFKKLDEIKKK was 0
